Tested on: Immortalised Mouse Dermal Fibroblasts (MDFs)
Assay: Cellular assay: inhibition of TSI induced necroptosis, CellTitre-Glo viability
Conditions: Mus musculus, Fibroblast; MDF, 3 hours TSI cocktail, Table 27; read-out: Inhibition of TSI-induced necroptosis (IC50 cell-based assay) in MDF
Procedure: Cellular Assay: Screening Compounds for Inhibition of TSI Induced Necroptosis in, 384 Well Plate Format. […] The cellular assay was carried out according to the following steps: • 1. […] Read luminescence readout on a plate reader. Percent viability was calculated for each compound according to equation (2): [formula] • Wherein RawData is the readout of any cell containing a compound of the invention. […]
Field: IC50. Provide a value for each of the compounds that follow.

# example entries with known answers
Cc1ncsc1-c1ccc(CNC(=O)[C@@H]2C[C@@H](O)CN2C(=O)[C@@H](NC(=O)COCCN2CCCC(n3cc(-c4cnc(N)c5c(-c6ccc(NS(=O)(=O)C(F)F)c(O[C@@H](C)c7ccc(F)cc7)c6)nn(C)c45)cn3)C2)C(C)(C)C)cc1 (stereo partly shown) :: 1 to 10 µM
C[C@H](Oc1cc(-c2nn(C)c3c(-c4cnn(C5CCC(C(=O)N6CC(Nc7cccc8c7C(=O)N(C7CCC(=O)NC7=O)C8=O)C6)CC5)c4)cnc(N)c23)ccc1NS(=O)(=O)C(F)F)c1ccc(F)cc1 (stereo partly shown) :: 1 to 10 µM
C[C@H](Oc1cc(-c2nn(C)c3c(-c4cnn(C5CCN(C(=O)CC6CN(c7cccc8c7C(=O)N(C7CCC(=O)NC7=O)C8=O)CCO6)CC5)c4)cnc(N)c23)ccc1NS(=O)(=O)C(F)F)c1ccc(F)cc1 (stereo partly shown) :: < 1 µM

The value of IC50 measured for the compound C[C@H](Oc1cc(-c2nn(C)c3c(-c4cnn(C5CCN(C(=O)c6ccc7c(c6)CN(C6CCC(=O)NC6=O)C7=O)CC5)c4)cnc(N)c23)ccc1NS(=O)(=O)C(F)F)c1ccc(F)cc1 (stereo partly shown) turned out to be 1 to 10 µM
